System: Plasmodium berghei
ASSAY DETAILS: Luciferase/luciferin-expressing antifolate-resistant parasites were used to infect a culture of HepG2 cells that were pre-incubated with compounds. Infected hepatocytes emit light due to the luciferase reaction. Assay results are presented as the percent inhibition of light emission compared to control. […]
Format: functional
CONDITION SET: sporozoite, HEPG2TOX_HILL_SLOPE 7.96, HEPG2TOX_R_SQUARED 0.425, PBLUC_HILL_SLOPE 14.6, PBLUC_R_SQUARED 0.0729, read-out: LUCIFERASE INFECTION ASSAY - IC50
MEASUREMENT TYPE: pIC50
Give bare numbers, as −log10 of the molar value.

If you can, please state the reported pIC50 value of `Cn1c2c(cc(-c3ccccc3)c1=O)CN(Cc1cnn(-c3ccc(F)cc3)c1)CC2` .
5.15
